What Ki was measured for each of the following?
Target: DOR (Rattus norvegicus, UniProt P33533)
Construct: from tissue
Sequence (P33533 whole entry): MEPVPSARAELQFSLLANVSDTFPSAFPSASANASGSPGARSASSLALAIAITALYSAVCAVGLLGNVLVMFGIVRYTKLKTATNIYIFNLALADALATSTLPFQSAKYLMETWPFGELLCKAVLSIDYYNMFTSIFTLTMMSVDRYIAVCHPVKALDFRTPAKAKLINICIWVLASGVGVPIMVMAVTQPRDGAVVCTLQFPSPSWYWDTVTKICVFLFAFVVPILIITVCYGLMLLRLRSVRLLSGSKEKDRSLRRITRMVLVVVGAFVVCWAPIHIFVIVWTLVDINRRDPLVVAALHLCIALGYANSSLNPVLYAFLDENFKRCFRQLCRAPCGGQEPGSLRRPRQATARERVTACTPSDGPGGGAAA
Experiment: Opioid receptor binding, DOR, rat brain membranes
Details: Binding Ki DOR, Table 2-6, rat brain membranes
Give bare numbers, in nM.

[[record]]
compound = "CCO[C@@]12CC[C@@H](N[C@@H](Cc3ccccc3)C(=O)OC(C)(C)C)[C@@H]3Oc4c(O)ccc5c4[C@@]31CCN(CC1CC1)[C@@H]2C5"
unit = "nM"
endpoint_value = 6.33

[[record]]
compound = "CO[C@@]12CC[C@@H](N[C@@H](CC(C)C)C(=O)OC(C)(C)C)[C@@H]3Oc4c(O)ccc5c4[C@@]31CCN(CC1CC1)[C@@H]2C5"
unit = "nM"
endpoint_value = 0.094

[[record]]
compound = "CO[C@@]12CC[C@@H](N[C@@H](C(=O)OC(C)(C)C)C(C)C)[C@@H]3Oc4c(O)ccc5c4[C@@]31CCN(CC1CC1)[C@@H]2C5"
unit = "nM"
endpoint_value = 0.24


Batch request: Ki per item, same order as input.
1. O=C(O)C(Cc1ccccc1)NC1CCC2(O)C3Cc4ccc(O)c5c4C2(CCN3CC2CC2)C1O5 (single isomer, unassigned) [Compound 60]
2. O=C(O)C(Cc1ccccc1)NC1CCC2(O)C3Cc4ccc(O)c5c4C2(CCN3CC2CC2)C1O5 (single isomer, unassigned) [Compound 59]

Result string:
1. 2.79
2. 3.53

###

What Ki was measured for each of the following?
Target: MOR (Rattus norvegicus)
Construct: from tissue
Sequence (P33535 whole entry): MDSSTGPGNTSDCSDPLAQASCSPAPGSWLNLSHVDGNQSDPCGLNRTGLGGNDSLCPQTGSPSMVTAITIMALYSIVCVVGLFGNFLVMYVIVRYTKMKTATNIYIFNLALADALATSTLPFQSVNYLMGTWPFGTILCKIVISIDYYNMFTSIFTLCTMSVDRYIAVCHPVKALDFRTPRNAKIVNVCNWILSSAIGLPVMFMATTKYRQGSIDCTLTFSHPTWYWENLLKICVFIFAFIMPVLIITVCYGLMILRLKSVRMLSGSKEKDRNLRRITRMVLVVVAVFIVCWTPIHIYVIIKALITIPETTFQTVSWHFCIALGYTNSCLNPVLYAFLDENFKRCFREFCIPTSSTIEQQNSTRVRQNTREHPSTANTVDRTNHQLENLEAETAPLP
Assay: Opioid receptor binding, MOR, rat brain membranes
Conditions: Binding Ki (nM) MOR, in vitro binding assay, rat brain membranes
One number for each entry, in nM.

Known Ki results, listed for orientation:
[[record]]
compound = "CO[C@@]12CC[C@H](N[C@@H](CC(C)C)C(=O)O)[C@@H]3Oc4c(O)ccc5c4[C@@]31CCN(C)[C@@H]2C5"
endpoint_value = 0.68

[[record]]
compound = "COC12CCC(NC(C(=O)O)C(C)C)C3Oc4c(O)ccc5c4C31CCN(C)C2C5 (single isomer, unassigned) [Compound 28]"
endpoint_value = 3.16

[[record]]
compound = "CO[C@@]12CC[C@@H](N[C@@H](Cc3ccccc3)C(=O)OC(C)(C)C)[C@@H]3Oc4c(O)ccc5c4[C@@]31CCN(C)[C@@H]2C5"
endpoint_value = 2.56


Proceeding to the next compound to report its Ki.
Query string: Ki lookup needed for CO[C@@]12CC[C@@H](NCC(=O)OCc3ccccc3)[C@@H]3Oc4c(O)ccc5c4[C@@]31CCN(C)[C@@H]2C5 , thanks.
Result string: 0.29

###

Target: DOR (Rattus norvegicus)
Construct: from tissue
Assay: Opioid receptor binding, DOR, rat brain membranes
Conditions: Binding Ki DOR, Table 1-6, rat brain membranes
Simple rule here: Ki less than 5 nM is Fulfilled, otherwise Not fulfilled.

Study these solved cases before continuing.
[[record]]
molecule = "CO[C@@]12CC[C@H](NCCCC(=O)O)[C@@H]3Oc4c(O)ccc5c4[C@@]31CCN(CC1CC1)[C@@H]2C5"
assayed_system = "DOR (Rattus norvegicus)"
group_label = "Not fulfilled"

[[record]]
molecule = "CO[C@@]12CC[C@@H](NCCCC(=O)O)[C@@H]3Oc4c(O)ccc5c4[C@@]31CCN(CC1CC1)[C@@H]2C5"
assayed_system = "DOR (Rattus norvegicus)"
group_label = "Not fulfilled"

[[record]]
molecule = "COC12CCC(NC(C(=O)O)C(C)C)C3Oc4c(O)ccc5c4C31CCN(CC1CC1)C2C5 (single isomer, unassigned) [Compound 71]"
assayed_system = "DOR (Rattus norvegicus)"
group_label = "Fulfilled"

[[record]]
molecule = "CO[C@@]12CC[C@@H](NCC(=O)O)[C@@H]3Oc4c(O)ccc5c4[C@@]31CCN(CC1CC1)[C@@H]2C5"
assayed_system = "DOR (Rattus norvegicus)"
group_label = "Fulfilled"


Shifting focus to the molecule that follows.
Query string: Hi there! Is Ki for CO[C@@]12CC[C@H](NCC(=O)O)[C@@H]3Oc4c(O)ccc5c4[C@@]31CCN(CC1CC1)[C@@H]2C5 below 5 nM, do you know?
Result string: Not fulfilled
